- Study Target: recombinant human NK3 receptor (Homo sapiens, UniProt P29371)
- Sequence (P29371 whole entry): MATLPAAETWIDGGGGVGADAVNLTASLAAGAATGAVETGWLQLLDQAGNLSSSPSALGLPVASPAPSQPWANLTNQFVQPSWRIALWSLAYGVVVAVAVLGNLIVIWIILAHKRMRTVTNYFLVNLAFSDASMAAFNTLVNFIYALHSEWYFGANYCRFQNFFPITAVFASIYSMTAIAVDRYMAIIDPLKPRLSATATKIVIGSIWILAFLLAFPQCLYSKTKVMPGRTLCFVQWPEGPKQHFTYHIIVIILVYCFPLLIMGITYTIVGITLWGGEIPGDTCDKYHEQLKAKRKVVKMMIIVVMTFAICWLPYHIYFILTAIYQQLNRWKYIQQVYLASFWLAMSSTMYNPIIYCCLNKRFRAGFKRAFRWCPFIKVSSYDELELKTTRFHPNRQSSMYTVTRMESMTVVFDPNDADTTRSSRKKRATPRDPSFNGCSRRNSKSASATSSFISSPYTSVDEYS
- Assay: [3H]SR142801 competition binding assay
- Condition Parameters: [3H]SR142801, membranes from HEK293 cells transiently expressing recombinant human NK3 receptor; read-out: hNK3 Ki
Test Readout: Ki (µM)

Field: example entries. Status: answers known.
> print(dat)
                                   molecule  unit.descriptor  readout.number
1  CN(Cc1ccc(C(F)(F)F)cc1)C(=O)C(C)(CCN1CCN(S(C)(=O)=O)CC1)c1ccc(Cl)c(Cl)c1 (stereo not shown) [Example 28]               µM           0.045
2  CN(Cc1ccc(-c2ccncc2)cc1)C(=O)C(CCN1CCN(S(C)(=O)=O)CC1)c1ccc(Cl)c(Cl)c1 (stereo not shown) [Example 2]               µM           0.315
3  C[C@H]1CN(CCC(C)(C(=O)N(C)Cc2ccc(Cl)cc2)c2ccc(Cl)c(Cl)c2)CCN1S(C)(=O)=O (stereo partly shown) [Example 86]               µM          0.0663

[a] CN(Cc1ccc(-c2ccncc2)cc1)C(=O)C(C)(CCN1CCN(S(C)(=O)=O)CC1)c1ccc(Cl)c(Cl)c1 (stereo not shown) [Example 23]
[b] C[C@H]1CN(CCC(C)(C(=O)N(C)Cc2ccc(Cl)c(C(F)(F)F)c2)c2ccc(Cl)c(Cl)c2)CCN1S(C)(=O)=O (stereo partly shown) [Example 69]
[c] COc1cccc(CN(C)C(=O)C(C)(CCN2CCCN(S(C)(=O)=O)CC2)c2ccc(Cl)c(Cl)c2)c1 (stereo not shown) [Example 120]
Would you mind ranking these molecules by ascending Ki? Ranked list of labels, please, in the requested order.
b, c, a
(b: 0.0114 µM, c: 0.108 µM, a: 0.201 µM)
